- Method Summary: ATG_ISRE_CIS: Attagene CIS-FACTORIAL HepG2 Assay for human Interferon Regulatory Factor 1 (IRF1) binding to an Interferon-Stimulated Response Element (ISRE) (AID 2282948)
- Condition: HepG2 ISRE cis-reporter (Attagene), mRNA transcription readout; actives raise or lower the signal
Active and inactive are the calls of the source. Rule for the calls: active = hit-call score of the fitted dose curve at least 0.9, where 1 is the maximum; inactive = score below 0.9.
I would appreciate it if you answered using one of these outcomes: active, inactive

- Compound: "O=P(O)(Oc1ccccc1)Oc1ccccc1"
  Class Label: "inactive"
- Compound: "O=C(NCNC(=O)NC1C(=O)NC(=O)N1CO)NC1C(=O)NC(=O)N1CO (centres undefined)"
  Class Label: "inactive"

Test call for this compound, please: "CC(=O)C=Cc1ccccc1"
active

Test call for this compound, please: "CCOC(=O)COc1ccc(Cl)cc1Cl"
inactive

Test call for this compound, please: "Cl/C=C\CCl"
inactive

Test call for this compound, please: "CCCCOP(=O)(O)OCCCC"
inactive

Test call for this compound, please: "CCCCOC(=O)CCC(=O)OCCCC"
inactive

----------
- Method Summary: TOX21_p53_BLA_p2_viability: Viability Assessment in the Tox21 HCT-116 p53 Agonism Beta-lactamase Assay, Phase 2 (AID 2283591);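 note: compound exposure lasted 16 h at 37 °C; actives lower the ATP signal meaning cytotoxicity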
Records with an inconclusive call do not appear. Active and inactive are the calls of the source. How the source made its calls: active means hit-call score of the fitted dose curve at least 0.9, where 1 is the maximum; inconclusive means response in the unintended direction; inactive means score below 0.9.
I would appreciate it if you answered using one of these outcomes: True = active, False = inactive

# count of solved cases: 6
- Compound: "ClC=C(Cl)Cl"
  Class Label: "False"
- Compound: "CC(Cl)CCl (configuration not stated)"
  Class Label: "False"
- Compound: "CC(=O)C=Cc1ccc2c(c1)OCO2"
  Class Label: "False"
- Compound: "COC(=O)C(c1ccccc1)C1CCCCN1 (configuration not stated)"
  Class Label: "False"
- Compound: "CNC1(c2ccccc2Cl)CCCCC1=O (configuration not stated)"
  Class Label: "False"
- Compound: "O=C(OCCN1CCCCC1)C(O)(c1ccccc1)c1ccccc1"
  Class Label: "False"

Test call for this compound, please: "COC(=O)[C@@H]1[C@H]2CC[C@@H](C[C@H]1OC(=O)c1ccccc1)N2C"
False

Test call for this compound, please: "CCc1cc(OC)c(C[C@@H](C)N)cc1OC"
False

Test call for this compound, please: "O=C(CCl)c1ccccc1"
False

Test call for this compound, please: "BrCCc1ccccc1"
False

----------
- Method Summary: BSK_hDFCGF_SRB: Viability Assessment in the BioMAP Diversity Plus: hDFCGF Assay (AID 2283061);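 note: cells exposed to compound for 24 h before the read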
- Condition: primary human foreskin fibroblasts
Active and inactive are the calls of the source. The calls were made as follows: active = hit-call score of the fitted dose curve at least 0.9, where 1 is the maximum; inactive = score below 0.9.
Measured Parameter: AC50

Sample answers from the record:
- Smiles Str: "CC(C)(C)C(=O)CCl"
  AC50: "inactive"
- Smiles Str: "O=C1C(Cl)=C(Cl)C(=O)C(Cl)=C1Cl"
  AC50: "6.62 µM (active)"
- Smiles Str: "[Cd+2].[Cl-].[Cl-]"
  AC50: "inactive"
- Smiles Str: "COC(C)(C)CCC[C@H](C)C/C=C/C(C)=C/C(=O)OC(C)C"
  AC50: "30.7 µM (active)"
- Smiles Str: "Nc1ccc(-c2ccc(N)c(N)c2)cc1N"
  AC50: "inactive"
- Smiles Str: "Oc1cc(Cl)ccc1Cl"
  AC50: "inactive"

Record AC50 for all entries; do not skip any.
1. CNC(=O)Oc1cc(C)c(SC)c(C)c1
2. O=c1c2ccccc2c(=O)c2c1cc(Cl)c1[nH]c3c([nH]c12)c(Cl)cc1c(=O)c2ccccc2c(=O)c13

["inactive", "inactive"]

Would you mind telling me what AC50 value was observed for "O=[N+]([O-])C=Cc1ccccc1" ?
20 µM (active)

----------
- Method Summary: ATG_DR4_LXR_CIS: Attagene CIS-FACTORIAL HepG2 Assay for human Liver X Receptor (LXR), DR4 submotif (AID 2282929)
- Condition: HepG2 Attagene DR4 cis-reporter, mRNA transcription; actives raise or lower the signal
Active and inactive are the calls of the source. The calls were made as follows: active = hit-call score of the fitted dose curve at least 0.9, where 1 is the maximum; inactive = score below 0.9.
I would appreciate it if you answered using one of these outcomes: active, inactive

# count of solved cases: 5
- Compound: "Nc1ccccc1C(=O)Oc1ccc2ccccc2c1"
  Class Label: "active"
- Compound: "CCC[N+](=O)[O-]"
  Class Label: "inactive"
- Compound: "CCN(CC)C(=S)S"
  Class Label: "inactive"
- Compound: "Oc1cc(Cl)ccc1Cl"
  Class Label: "inactive"
- Compound: "BrCBr"
  Class Label: "inactive"

Test call for this compound, please: "O=c1[nH]c(Cl)c(Cl)cc1Cl"
inactive

Test call for this compound, please: "CC(C)C(=O)Cl"
inactive

Test call for this compound, please: Cc1ccc(OP(=O)(Oc2ccc(C)cc2)Oc2ccc(C)cc2)cc1 (tested in a mixture with another compound)
active

----------
- Method Summary: ATG_E_Box_CIS: Attagene CIS-FACTORIAL HepG2 Assay for human Enhancer Box (E-box) (AID 2282936)
- Condition: HepG2 E-box cis-reporter transcription, actives raise or lower the signal
- Experimental: ATG_CIS is a cell-based, multiplexed-readout assay that uses HepG2, a human liver cell line, with measurements taken at 24 hours after chemical dosing in a 24-well plate.ATG_E_Box_CIS is one of 52 assay component(s) measured or calculated from the ATG_CIS assay. […] This assay endpoint, ATG_E_Box_CIS, was analyzed with bidirectional fitting relative to DMSO as the negative control and baseline of activity. […]
Activity calls are given as the source filed them. How the source made its calls: active means hit-call score of the fitted dose curve at least 0.9, where 1 is the maximum; inactive means score below 0.9.
I would appreciate it if you answered using one of these outcomes: 1 (yes) for active, 0 (no) for inactive

# count of solved cases: 5
- Molecule: "CC1OC(C)OC(C)O1 (stereo not given)"
  Class Label: "0 (no)"
- Molecule: "CC(C)COP(=O)(OCC(C)C)OCC(C)C"
  Class Label: "0 (no)"
- Molecule: "CC(=O)C=Cc1ccccc1"
  Class Label: "0 (no)"
- Molecule: "CN1C[C@H](C(=O)N[C@]2(C)O[C@@]3(O)[C@@H]4CCCN4C(=O)[C@H](Cc4ccccc4)N3C2=O)C=C2c3cccc4[nH]cc(c34)C[C@H]21"
  Class Label: "0 (no)"
- Molecule: "ClCCCCCCCl"
  Class Label: "0 (no)"

Test call for this molecule, please: "CC(C)(C)C(=O)CCl"
1 (yes)

Test call for this molecule, please: "C[N+](C)(C)CC(=O)[O-]"
0 (no)

Test call for this molecule, please: "C[C@]12CCC(=O)C(O)=C1CC[C@@H]1[C@@H]2CC[C@]2(C)C(=O)CC[C@@H]12"
0 (no)

Test call for this molecule, please: "Cc1ccc(C)c2ccccc12"
0 (no)

Test call for this molecule, please: "CN(C)CCC#N"
0 (no)

Test call for this molecule, please: "CCC[N+](=O)[O-]"
0 (no)

Test call for this molecule, please: "CCc1cccc(C)c1N(C(=O)CCl)[C@@H](C)COC"
0 (no)

Test call for this molecule, please: "Oc1ccc(C2(c3ccc(O)cc3)c3ccccc3-c3ccccc32)cc1"
1 (yes)

Test call for this molecule, please: "CCNCC"
0 (no)

----------
- Read-out: Interleukin-8 (IL8), CXCL8 (gene 3576)
- Method Summary: BSK_hDFCGF_IL8: BioMAP Diversity Plus: hDFCGF Assay for Interleukin-8 (IL8) Biomarker Activity (AID 2283058)
- Condition: primary human foreskin fibroblasts; actives raise or lower the signal
Activity calls are given as the source filed them. Rule for the calls: active = hit-call score of the fitted dose curve at least 0.9, where 1 is the maximum; inactive = score below 0.9.
I would appreciate it if you answered using one of these outcomes: active, inactive

# count of solved cases: 5
- Molecule: "CC(C)(C)C(=O)CCl"
  Class Label: "inactive"
- Molecule: "O=S(=O)(c1ccccc1)c1ccccc1"
  Class Label: "inactive"
- Molecule: "C=CC(=O)OCC(CC)CCCC (stereo unspecified)"
  Class Label: "inactive"
- Molecule: "CC(C)(c1cc(Cl)c(O)c(Cl)c1)c1cc(Cl)c(O)c(Cl)c1"
  Class Label: "active"
- Molecule: "CCCOC(=O)c1ccccc1C(=O)OCCC"
  Class Label: "inactive"

Test call for this molecule, please: "O=C(CCl)c1ccccc1"
active

Test call for this molecule, please: "CCc1cc(C)cc(CC)c1-c1c(OC(=O)C(C)(C)C)n2n(c1=O)CCOCC2"
inactive

Test call for this molecule, please: "Oc1cc(Cl)ccc1Cl"
inactive

Test call for this molecule, please: "CC(C)COP(=O)(OCC(C)C)OCC(C)C"
inactive

Test call for this molecule, please: Cc1ccc(OP(=O)(Oc2ccc(C)cc2)Oc2ccc(C)cc2)cc1 (tested in a mixture with another compound)
inactive

Test call for this molecule, please: "CC(C)CCCCCCCOP(=O)(Oc1ccccc1)Oc1ccccc1"
active

----------
- Read-out: Basic fibroblast growth factor (bFGF), FGF2 (gene 2247)
- Method Summary: BSK_MyoF_bFGF: BioMAP Diversity Plus: MyoF Assay for Basic fibroblast growth factor (bFGF) Biomarker Activity (AID 2284246)
- Condition: primary human lung fibroblasts
Active and inactive are the calls of the source. The calls were made as follows: active = hit-call score of the fitted dose curve at least 0.9, where 1 is the maximum; inactive = score below 0.9.
Measured Parameter: outcome

- Molecule: "Cc1ccc(OP(=O)(Oc2ccc(C)cc2)Oc2ccc(C)cc2)cc1 (tested in a mixture with another compound)"
  Test Result: "inactive"
- Molecule: "Oc1cc(Cl)ccc1Cl"
  Test Result: "inactive"
- Molecule: "Nc1ccc(-c2ccc(N)c(N)c2)cc1N"
  Test Result: "inactive"
